Target: α–glucosidase (EC 3.2.1.20, Saccharomyces cerevisiae type I)
Format: biochemical
Conditions: α–glucosidase 0.035 µM, 2 mM pNPG
quantity: pIC50
Bear in mind: pIC50 is minus log10 of a mol/L concentration; give just that figure.

For α–glucosidase (EC 3.2.1.20, Saccharomyces cerevisiae type I), give pIC50 of the listed molecule: O=c1cc(-c2ccccc2)oc2cc(O)c(O)c(O)c12 [baicalein, 5,6,7–trihydroxyflavone]
4.74

* * *

Target: α–glucosidase (EC 3.2.1.20, Saccharomyces cerevisiae type I)
Assay type: biochemical
Conditions: α–glucosidase 0.10 µM, 2 mM pNPG
quantity: IC50 (µM)
Value expressed in µM; do not type the unit.

Quick one: give measured IC50 for O=c1cc(-c2ccccc2)oc2cc(O)c(O)c(O)c12 [baicalein, 5,6,7–trihydroxyflavone]
555

* * *

Target: α–glucosidase (EC 3.2.1.20, Saccharomyces cerevisiae type I)
Type: biochemical
Conditions: α–glucosidase 0.07 µM, 2 mM pNPG
Experimental: The inhibitory activity of baicalein and baicalin was studied using the yeast α–glucosidase assay, using pNPG as a substrate. The enzyme acts by hydrolyzing pNPG into […] and p–nitrophenol (yellow); the reaction was detected at different inhibitor concentrations by variation in chromatic intensity. […] Absorbance values were detected at 405 nm for 60 min, using a PerkinElmer Victor Nivo microplate reader spectrophotometer (Waltham, MA, USA). […]
quantity: pIC50
Bear in mind: pIC50 is minus log10 of a mol/L concentration; give just that figure.

Quick one: give measured pIC50 for O=c1cc(-c2ccccc2)oc2cc(O)c(O)c(O)c12 [baicalein, 5,6,7–trihydroxyflavone]
4.29

* * *

Target: α–glucosidase (EC 3.2.1.20, Saccharomyces cerevisiae type I)
Type: biochemical
Conditions: α–glucosidase 0.05 µM, 2 mM pNPG
quantity: pIC50
Bear in mind: pIC50 is minus log10 of a mol/L concentration; give just that figure.

Quick one: give measured pIC50 for O=c1cc(-c2ccccc2)oc2cc(O)c(O)c(O)c12 [baicalein, 5,6,7–trihydroxyflavone]
4.62

* * *

Molecular target: α–glucosidase (EC 3.2.1.20, Saccharomyces cerevisiae type I)
Type: biochemical
Conditions: mixed–model inhibition, 0.05 µM enzyme, 0.5–2.0 mM pNPG; read-out: inhibition constant (Ki)
quantity: pKi
Bear in mind: pKi is minus log10 of a mol/L concentration; give just that figure.

Quick one: give measured pKi for O=c1cc(-c2ccccc2)oc2cc(O)c(O)c(O)c12 [baicalein, 5,6,7–trihydroxyflavone]
4.59
